Test system: HCT-116 colon
procedure-text: NCI-60 one-dose screen, 48 h
recorded-conditions: 10 µM unless noted
This is part of a sample that, as a whole, favours compounds with a hit. Of some 83,000 tested, about 20% had one in any assay. Activity calls are given as the source filed them. How the source made its calls: active means growth percent below 10; inactive means the rest.
Outcome codes: active, inactive

[[record]]
compound = "COP(=O)(OC)C(c1ccccc1)(c1ccccc1)c1ccccc1"
measurement_target = "HCT-116 colon"
class_name = "inactive"

[[record]]
compound = "COc1cccc(N2CCN(CC(=O)N3CCN(c4nnc(-c5ccc(Cl)cc5)c(-c5ccc(Cl)cc5)n4)CC3)CC2)c1"
measurement_target = "HCT-116 colon"
class_name = "inactive"

[[record]]
compound = "COc1ccc(-c2ccc(O)c(C(=O)/C=C/c3cc(OC)c(OC)c(OC)c3)c2)cc1"
measurement_target = "HCT-116 colon"
class_name = "inactive"

[[record]]
compound = "COc1cc(Cl)cc(-c2nn(-c3cccc(NC(=O)c4cc(C(F)(F)F)cc(C(F)(F)F)c4)c3)cc2-c2ccncc2)c1"
measurement_target = "HCT-116 colon"
class_name = "inactive"

[[record]]
compound = "CCOC(=O)/C(=C/CC/C(C)=C/CC/C(C)=C/CCc1ccoc1)CC(=O)N1CCCCC1"
measurement_target = "HCT-116 colon"
class_name = "inactive"

[[record]]
compound = "COc1cnc2c(c1)C(=O)c1c-2n(CCCN2CCNCC2)c(=O)c2cc(F)ccc12"
measurement_target = "HCT-116 colon"
class_name = "active"

[[record]]
compound = "Cc1ncc(C(=O)Nc2ccc(CN3CCN(C)CC3)c(C(F)(F)F)c2)cc1C#Cc1cncc2ncccc12"
measurement_target = "HCT-116 colon"
class_name = "inactive"

[[record]]
compound = "COc1ccc(NC(=O)c2ccccc2-c2ccccc2)c(C(N)=O)c1"
measurement_target = "HCT-116 colon"
class_name = "inactive"

[[record]]
compound = "O=CNc1ccc2c(c1)Cc1cc([N+](=O)[O-])ccc1-2"
measurement_target = "HCT-116 colon"
class_name = "inactive"

[[record]]
compound = "COc1cc(/C=C/C(=O)C(C(=O)/C=C/c2ccc(OC(=O)CCNC34CC5CC(CC(C5)C3)C4)c(OC)c2)C(=O)CCNC23CC4CC(CC(C4)C2)C3)ccc1OC(=O)CCNC12CC3CC(CC(C3)C1)C2 (stereo unspecified)"
measurement_target = "HCT-116 colon"
class_name = "active"

[[record]]
compound = "CCCCCCCCCCOC(C)=O"
measurement_target = "HCT-116 colon"
class_name = "inactive"

[[record]]
compound = "COc1ccc2cc(-c3nc4ccccc4[nH]3)c(=O)oc2c1"
measurement_target = "HCT-116 colon"
class_name = "inactive"

[[record]]
compound = "CCOc1cc(CCNS(=O)(=O)c2ccc(C)cc2)c(C(C)=O)cc1OCC"
measurement_target = "HCT-116 colon"
class_name = "inactive"

[[record]]
compound = "Cc1ccc(-c2cc(-c3ccccc3)n(-c3ccccc3)n2)cc1"
measurement_target = "HCT-116 colon"
class_name = "inactive"

[[record]]
compound = "CC(=O)c1nn(-c2ccccc2)c(=Nc2ccccc2)cc1C"
measurement_target = "HCT-116 colon"
class_name = "inactive"

[[record]]
compound = "NS(=O)(=O)c1ccc(-n2nc(-c3ccc(Br)cc3)ccc2=O)cc1"
measurement_target = "HCT-116 colon"
class_name = "inactive"

